- System: Homo sapiens
- Method: Cmax in human systemic circulation with normal renal function assessed as 8-OH-ACV level at 2000 mg, po every 6 hrs measured after fifth dose by LC/MS
- Assay type: ADME, organism-based
- Parameters: dose 2000 mg, route oral
- Measurement Parameters: in vivo
Experimental Readout: Cmax

Query: Query (compound): `Nc1nc2c(nc(O)n2COCCO)c(=O)[nH]1` ; field requested: Cmax
Reply: 320 nM

---

- Method: AUC (0 to 12 hrs) in human CSF with chronic kidney disease at 1500 mg, po every 12 hrs measured after fifth dose by radioimmunoassay
- Assay type: ADME, organism-based
- Parameters: time < 12 hr, dose 1500 mg, route oral
Experimental Readout: AUC at 12 h

Query: Consider the compound shown here: `Nc1nc2c(ncn2COCCO)c(=O)[nH]1` What is its recorded AUC at 12 h?
Reply: 159 µM·h

---

- Tested on: Homo sapiens
- Method: Drug level in human CSF with normal renal function assessed as CMMG level at 2000 mg, po every 6 hrs measured after fifth dose by LC/MS
- Format: ADME, organism-based
- Measurement Parameters: in vivo, read-out: Drug uptake
Experimental Readout: concentration (nM)
Unit nM implied. Number only.

Query: Requested read-out: concentration. Entry: `Nc1nc2c(ncn2COCC(=O)O)c(=O)[nH]1`
Reply: 70

---

- Method: AUC (0 to 12 hrs) in human systemic circulation with chronic kidney disease at 1500 mg, po every 12 hrs measured after fifth dose by radioimmunoassay
- Format: ADME, organism-based
- Design: dose 1500 mg, time < 12 hr, route oral
- Measurement Parameters: plasma
Experimental Readout: AUC at 12 h (µM·h)
Field: numeric (µM·h). Do not append units.

Query: Find the recorded AUC at 12 h belonging to Nc1nc2c(ncn2COCCO)c(=O)[nH]1 [ACYCLOVIR] and report it.
Reply: 577

---

- Method: Tmax in human systemic circulation with normal renal function at 2000 mg, po every 6 hrs measured after fifth dose by radioimmunoassay
- Assay type: ADME, organism-based
- Measurement Parameters: plasma
Experimental Readout: Tmax

Query: Which Tmax reading was recorded for the molecule `Nc1nc2c(ncn2COCCO)c(=O)[nH]1` ?
Reply: 2.1 h

---

- Method: Cmax in human CSF with chronic kidney disease at 1500 mg, po every 12 hrs measured after fifth dose by radioimmunoassay
- Type: ADME, organism-based, Cerebrospinal fluid
- Set-up: dose 1500 mg, route oral
Experimental Readout: Cmax (µM)
Give the quantity in µM, number only.

Query: State the recorded Cmax for this entry: Nc1nc2c(ncn2COCCO)c(=O)[nH]1 [ACYCLOVIR]
Reply: 16

---

- Test system: Homo sapiens
- Method: Drug level in human CSF with chronic kidney disease assessed as 8-OH acyclovir level at 1500 mg, po every 12 hrs measured after fifth dose by LC/MS
- Format: ADME, organism-based
- Measurement Parameters: in vivo, read-out: Drug uptake
Experimental Readout: concentration

Query: What concentration value was documented for this compound, `Nc1nc2c(nc(O)n2COCCO)c(=O)[nH]1` ?
Reply: 260 nM

---

- System: Homo sapiens
- Method: Drug level in human plasma with chronic kidney disease assessed as CMMG level at 1500 mg, po every 12 hrs measured after fifth dose by LC/MS
- Type: ADME, organism-based
- Measurement Parameters: in vivo, read-out: Drug uptake
Experimental Readout: concentration (µM)
Only the number, expressed in µM, is required.

Query: GET /values?readout=concentration&item= `Nc1nc2c(ncn2COCC(=O)O)c(=O)[nH]1`
Reply: 12

---

- Test system: Homo sapiens
- Method: Drug level in human plasma with chronic kidney disease assessed as 8-OH acyclovir level at 1500 mg, po every 12 hrs measured after fifth dose by LC/MS
- Type: ADME, organism-based
- Measurement Parameters: in vivo, read-out: Drug uptake
Experimental Readout: concentration
A complete answer gives the number followed by the unit.

Query: # concentration lookup, item `Nc1nc2c(nc(O)n2COCCO)c(=O)[nH]1`
Reply: 1400 nM

---

- Method: Cmax in human systemic circulation with normal renal function at 2000 mg, po every 6 hrs measured after fifth dose by radioimmunoassay
- Format: ADME, organism-based
- Design: dose 2000 mg, route oral
- Measurement Parameters: plasma
Experimental Readout: Cmax (µM)
A number alone suffices; assume µM.

Query: What does the data say about its Cmax? Entry: Nc1nc2c(ncn2COCCO)c(=O)[nH]1 [ACYCLOVIR]
Reply: 42

---

- Method: Drug level in human CSF with normal renal function at 2000 mg, po every 6 hrs measured after fifth dose by radioimmunoassay
- Assay type: ADME, organism-based
- Measurement Parameters: read-out: Drug uptake
Experimental Readout: concentration at 6 h (µM)
Give the value, in units of µM, as a plain number.

Query: What value of concentration at 6 h has been reported for the following compound? Nc1nc2c(ncn2COCCO)c(=O)[nH]1 [ACYCLOVIR]
Reply: 6.25

---

- Tested on: Homo sapiens
- Method: Drug level in human plasma with normal renal function assessed as CMMG level at 2000 mg, po every 6 hrs measured after fifth dose by LC/MS
- Format: ADME, organism-based
- Measurement Parameters: in vivo, read-out: Drug uptake
Experimental Readout: concentration (nM)
Numbers only; they are read as nM.

Query: I'm curious: which concentration was measured for `Nc1nc2c(ncn2COCC(=O)O)c(=O)[nH]1` tested on Homo sapiens?
Reply: 2900

---

- Method: AUC (0 to 6 hrs) in human CSF with normal renal function at 2000 mg, po every 6 hrs measured after fifth dose by radioimmunoassay
- Type: ADME, organism-based
- Design: time < 6 hr, dose 2000 mg, route oral
Experimental Readout: AUC at 6 h

Query: What does the data say about its AUC at 6 h? Entry: Nc1nc2c(ncn2COCCO)c(=O)[nH]1 [ACYCLOVIR]
Reply: 37 µM·h

---

- Method: AUC (0 to 6 hrs) in human systemic circulation with normal renal function at 2000 mg, po every 6 hrs measured after fifth dose by radioimmunoassay
- Assay type: ADME, organism-based
- Parameters: time < 6 hr, dose 2000 mg, route oral
- Measurement Parameters: plasma
Experimental Readout: AUC at 6 h (µM·h)
// return numeric value only (unit: µM·h, not printed)

Query: For the compound shown here, Nc1nc2c(ncn2COCCO)c(=O)[nH]1 [ACYCLOVIR] , give the reported AUC at 6 h.
Reply: 137

---

- Method: Tmax in human systemic circulation with chronic kidney disease at 1500 mg, po every 12 hrs measured after fifth dose by radioimmunoassay
- Assay type: ADME, organism-based
- Measurement Parameters: plasma
Experimental Readout: Tmax (h)
Express the result in h but write the number alone.

Query: I am curious: what Tmax value has been reported for Nc1nc2c(ncn2COCCO)c(=O)[nH]1 [ACYCLOVIR] ?
Reply: 2

---

- Method: Cmax in human CSF with normal renal function at 2000 mg, po every 6 hrs measured after fifth dose by radioimmunoassay
- Assay type: ADME, organism-based, Cerebrospinal fluid
- Parameters: dose 2000 mg, route oral
Experimental Readout: Cmax (µM)
Respond numerically; units are µM and should not be typed.

Query: Can you share its Cmax? I mean this compound: Nc1nc2c(ncn2COCCO)c(=O)[nH]1 [ACYCLOVIR]
Reply: 7.8

---

- Test system: Homo sapiens
- Method: Drug level in human CSF with chronic kidney disease assessed as CMMG level at 1500 mg, po every 12 hrs measured after fifth dose by LC/MS
- Format: ADME, organism-based
- Measurement Parameters: in vivo, read-out: Drug uptake
Experimental Readout: concentration (nM)
Give the value, in units of nM, as a plain number.

Query: Which concentration is listed for `Nc1nc2c(ncn2COCC(=O)O)c(=O)[nH]1` ?
Reply: 310

---

- Test system: Homo sapiens
- Method: Cmax in human systemic circulation with chronic kidney disease assessed as 8-OH-ACV level at 1500 mg, po every 12 hrs measured after fifth dose by LC/MS
- Type: ADME, organism-based
- Set-up: dose 1500 mg, route oral
- Measurement Parameters: in vivo
Experimental Readout: Cmax (nM)
Response body: numeric value in nM, unit text excluded.

Query: Lab request: please report Cmax under test system Homo sapiens for `Nc1nc2c(nc(O)n2COCCO)c(=O)[nH]1`
Reply: 1600
